Values from PubChem BioAssay (NCI)

- Tested on: DU-145 prostate
- method_description: NCI-60 one-dose screen, 48 h (100 = growth as untreated, 0 = no growth, -100 = all killed)
- condition_label: 10 µM unless noted
The panel holds about 83,000 compounds, 20% with a hit somewhere; the sample as a whole holds those more often.
endpoint_label: growth (%)
Supply the numeric figure in %, leaving out any unit text.

Some entries whose results are on file:
query: For DU-145 prostate, give growth of the listed molecule: O=C(CCl)Oc1ccc(-c2ccccc2)c(Br)c1
result: 104

query: For DU-145 prostate, give growth of the listed molecule: COc1ccc(-c2nn(-c3ccc(Cl)cc3)cc2-c2nc3ccccc3[nH]2)cc1
result: 120

query: For DU-145 prostate, give growth of the listed molecule: NC(=NCCCC1(c2ccccc2)CCCC1)Nc1ccc(Cl)cc1
result: 37.8

query: For DU-145 prostate, give growth of the listed molecule: O=C1Nc2c(ccc(Cl)c2Cl)/C1=C\c1cc(C(F)(F)F)cc(C(F)(F)F)c1
result: 24.8

query: For DU-145 prostate, give growth of the listed molecule: COc1cc(C(=O)Oc2ccccc2OC(=O)c2cc(OC)c(OC)c(OC)c2)cc(OC)c1OC
result: 109

query: For DU-145 prostate, give growth of the listed molecule: O=C(COc1ccc(-c2nc3cc(Cl)c(Cl)cc3[nH]2)cc1)N=Nc1c(O)[nH]c2ccccc12
result: -20.7

Next:
query: For DU-145 prostate, give growth of the listed molecule: Cc1ccc(OC(=O)c2ccc(Cl)cc2)cc1
result: 112

query: For DU-145 prostate, give growth of the listed molecule: CCCCCC(=O)Oc1ccc(/C(=C(\C)c2ccc(OC)cc2)c2ccc(OCCN3CCCCC3)cc2)cc1
result: 79.8

query: For DU-145 prostate, give growth of the listed molecule: COc1cccc(NC(=O)c2sc3nc(C)c(C(C)=O)cc3c2N)c1
result: 23.3

query: For DU-145 prostate, give growth of the listed molecule: COc1cc(/C=C/c2cc(/C=C/c3ccc(O)c(OC)c3)n(-c3c(C)cccc3C)c(=O)n2)ccc1O
result: 12.7

query: For DU-145 prostate, give growth of the listed molecule: CC1SC(c2ccc(N(C)C)cc2)N(NC(=O)C(O)(c2ccccc2)c2ccccc2)C1=O (stereo not given)
result: 97.2

query: For DU-145 prostate, give growth of the listed molecule: COc1ccc(CN2c3ccccc3Sc3ccccc32)c(C(F)(F)F)c1
result: 21

query: For DU-145 prostate, give growth of the listed molecule: COc1ccc(-c2n[nH]nc2-c2csc3ccccc23)cc1OC
result: 41.5

query: For DU-145 prostate, give growth of the listed molecule: O=C(CCN1C(=O)/C(=C/c2ccc(Cl)cc2)SC1=S)NCCCN1CCOCC1
result: 106

* * *

- Test system: HOP-92 NSCLC
- method_description: NCI-60 one-dose screen, 48 h
- condition_label: 10 µM unless noted
Compounds without any hit were thinned out: in the full panel of roughly 83,000, 20% have a hit. Calls of active or inactive are those of the source. The calls were made as follows: active = growth percent below 10; inactive = the rest.
Outcome field: choose from active, inactive

Solved cases below.
query: What did this assay record as the result for N#C/C(=C\c1ccc(-c2cc(C(F)(F)F)ccc2Cl)o1)c1nc(-c2ccco2)cs1 ?
result: inactive

query: What did this assay record as the result for Cc1cc2c3ccccc3ccc2[n+]2ccccc12 ?
result: inactive

query: What did this assay record as the result for Cc1nc(/N=C(\N)NC(=O)Nc2cccc([N+](=O)[O-])c2)sc1C ?
result: inactive

Next:
query: What did this assay record as the result for COc1ccc(-c2cc(Nc3ccnc(N4CCOCC4)n3)on2)cc1 ?
result: inactive

query: What did this assay record as the result for Cn1cccc1-c1nc2c3c(ccc2[nH]1)C(=O)c1ccccc1C3=O ?
result: inactive

query: What did this assay record as the result for Cc1cc(C)nc(SC2=C(Nc3cc(Cl)ccc3O)C(=O)N(Cc3ccccc3)C2=O)n1 ?
result: inactive

query: What did this assay record as the result for O=C(CCl)Oc1ccc(-c2ccccc2)c(Br)c1 ?
result: inactive

query: What did this assay record as the result for Cc1nc(Nc2ccc(F)c(Cl)c2)sc1C(=O)O ?
result: active

query: What did this assay record as the result for CN1CCN(CCCOc2cccc3nc(Nc4cc(Cl)cc(Cl)c4)ccc23)CC1 ?
result: active

query: What did this assay record as the result for COc1cccc(-c2nn(C(C)(C)C)cc2-c2ccnc(NCCCNS(=O)(=O)c3cccc4ccccc34)c2)c1 ?
result: inactive

* * *

As shown below, each of these compounds has a reported growth value.
- Tested on: A549/ATCC NSCLC
- method_description: NCI-60 one-dose screen, 48 h (100 = growth as untreated, 0 = no growth, -100 = all killed)
- condition_label: 10 µM unless noted
This is part of a sample that, as a whole, favours compounds with a hit. Of some 83,000 tested, about 20% had one in any assay.
Supply the numeric figure in %, leaving out any unit text.

Some entries whose results are on file:
query: For A549/ATCC NSCLC, give growth of the listed compound: COc1ccc(C(=O)COc2ccc(/C=C3\COc4ccc(OC)cc4C3=O)cc2)cc1
result: 77.9

query: For A549/ATCC NSCLC, give growth of the listed compound: Clc1ccc2c(NCCNc3nc(N4CCCCC4)nc4ccccc34)ccnc2c1
result: 0.13

query: For A549/ATCC NSCLC, give growth of the listed compound: Cc1cc2c3ccccc3ccc2[n+]2ccccc12
result: -16.9

query: For A549/ATCC NSCLC, give growth of the listed compound: COc1cc(CNc2oc(-c3ccccc3)c(-c3ccccc3)c2C#N)cc(CN2CCN(C)CC2)c1O
result: 56.8

// below: growth requested for another compound
query: For A549/ATCC NSCLC, give growth of the listed compound: Cc1cc(N2CCOCC2)nc(NCc2cc(Nc3ccnc4cc(Cl)ccc34)ccc2F)n1
result: -49.4

* * *

- Tested on: RXF 393 renal
- method_description: NCI-60 one-dose screen, 48 h (100 = growth as untreated, 0 = no growth, -100 = all killed)
- condition_label: 10 µM unless noted
The panel holds about 83,000 compounds, 20% with a hit somewhere; the sample as a whole holds those more often.
As shown below, each of these compounds has a reported growth value.
Supply the numeric figure in %, leaving out any unit text.

Some entries whose results are on file:
query: In one line, give reported growth of the entry O=C(Cc1ccc(/C=C/C(=O)c2ncc[nH]2)cc1)Nc1ccccc1 .
result: 42.9

query: In one line, give reported growth of the entry COc1ccc2[nH]cc(-c3noc(C(=O)c4cn(C)c5ccc(F)cc45)n3)c2c1 .
result: 116

query: In one line, give reported growth of the entry COc1ccc(CCNc2nc3c(c(=O)n(Cc4ccc(Br)cc4)c(=O)n3C)n2C)cc1OC .
result: 120

query: In one line, give reported growth of the entry COc1cccc(-c2nc3sccn3c2-c2ccnc(NCCCNS(=O)(=O)c3cccc(F)c3)c2)c1 .
result: 66.7

query: In one line, give reported growth of the entry N#Cc1nnn(-c2ccc(S(N)(=O)=O)cc2)c1NCC(=O)c1ccccc1 .
result: 113

query: In one line, give reported growth of the entry CC[C@]1(O)C[C@@H]2CN(CCc3c([nH]c4ccccc34)[C@@](C(=O)OC)(c3cc4c(cc3OC)N(C)[C@H]3[C@@](O)(C(N)=O)[C@H](O)[C@]5(CC)[C@@H]6C[C@@H]6CN6CC[C@]43[C@@H]65)C2)C1 .
result: 60.4

query: In one line, give reported growth of the entry COc1ccc(C(=O)/C=C/c2cccnc2Nc2cc(OC)c(OC)c(OC)c2)cc1 .
result: 12.9

query: In one line, give reported growth of the entry CC(C)c1c(C(=O)c2ccccc2)c(-c2ccccc2)c(-c2ccc(F)cc2)n1CC[C@@H](O)C[C@@H](O)CC(=O)O .
result: 36.6

// below: growth requested for another compound
query: In one line, give reported growth of the entry CN(C)S(=O)(=O)c1ccc(S(=O)(=O)Nc2cccc(Cl)c2N2CCCCC2)cc1 .
result: 88

* * *

- System: UACC-257 melanoma
- method_description: NCI-60 one-dose screen, 48 h
- condition_label: 10 µM unless noted
- Description: Cells are grown in 96 well plates and exposed to the test compound for 48 hours. Compounds are tested at a single concentration, which is 10^-5 M for most compounds. The reported endpoint is percent growth (GI% or GIPRCNT), where numbers from 0 - 100% represent growth inhibition, and numbers from -100% - 0 represent cell death. For example, a value of 40 represents 60% growth inhibition. A value of 0 means no net growth occurred over the course of the experiment. […]
The panel holds about 83,000 compounds, 20% with a hit somewhere; the sample as a whole holds those more often. Activity calls are given as the source filed them. The calls were made as follows: active = growth percent below 10; inactive = the rest.
Outcome field: choose from active, inactive

Solved cases below.
query: What did this assay record as the result for O=C(O)COc1ccc(Cl)cc1C1CCCCC1 ?
result: inactive

query: What did this assay record as the result for O=C(/C=C/c1ccccc1)c1ccc(O)c(CN2CCN(c3cc4c(cc3F)c(=O)c(C(=O)O)cn4C3CC3)CC2)c1 ?
result: inactive

query: What did this assay record as the result for COc1cc(C=Nc2oc(-c3ccccc3)c(-c3ccccc3)c2C#N)cc(CN2CCCCC2)c1O ?
result: inactive

Next:
query: What did this assay record as the result for FC(F)(F)Oc1ccc2nc3nc4ccc[nH]c4cc3c2c1 ?
result: inactive

query: What did this assay record as the result for O=C1CC(=NCC(=O)n2c(-c3ccccc3)nc3ccccc32)NN1 ?
result: inactive

query: What did this assay record as the result for COc1cc(Nc2cc(C)nc(N3CCN(c4ccnc5cc(Cl)ccc45)CC3)n2)cc(OC)c1 ?
result: inactive

query: What did this assay record as the result for N#Cc1nnn(-c2ccc(S(N)(=O)=O)cc2)c1NC(=O)CCl ?
result: inactive

query: What did this assay record as the result for COc1cc2nnc3c4cccnc4[nH]c3c2cc1OC ?
result: active

query: What did this assay record as the result for CC1SC(c2ccc(N(C)C)cc2)N(NC(=O)C(O)(c2ccccc2)c2ccccc2)C1=O (stereo unspecified) ?
result: inactive

query: What did this assay record as the result for CN1C(=O)C2(SCC(C(=O)NCc3ccccc3)N2C(=O)C2CCCCC2)c2ccccc21 (stereo unspecified) ?
result: inactive

query: What did this assay record as the result for Clc1ccc2nc3nc4ccc[nH]c4cc3c2c1 ?
result: inactive

query: What did this assay record as the result for COc1cc(/C=C/c2cc(/C=C/c3ccc(O)c(OC)c3)n(-c3c(C)cccc3C)c(=O)n2)ccc1O ?
result: active

query: What did this assay record as the result for O=c1cc(/C(=C2/C=CC=N2)c2ccc[nH]2)c2cc(Cl)ccc2o1 ?
result: inactive

query: What did this assay record as the result for Cn1cc(C(=O)c2nc(-c3c[nH]c4ccc(F)cc34)no2)c2cc(F)ccc21 ?
result: inactive

query: What did this assay record as the result for CCN(CC)S(=O)(=O)c1ccc(OC)c(NC(=O)c2[nH]c(C)c3c2CCCCC3=O)c1 ?
result: inactive

query: What did this assay record as the result for NC(=NC1C2CC3CC(C2)CC1C3)Nc1ccc(I)cc1 (stereo unspecified) ?
result: active

query: What did this assay record as the result for N#CN1CC[C@H](C(=O)Nc2cc3cc(C(N)=O)ccc3cn2)C1 ?
result: active
